Each entry below carries its reported percent inhibition of viability.
System: NK-YS (IL-2 2.5 ng/mL)
Assay: percent inhibition of viability; higher = more inhibition;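 note: normalised to DMSO-only wells as negative and benzethonium chloride as positive control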
Conditions: 72 h; 1 nM

{"columns": ["COMPOUND", "percent inhibition of viability (%)"],
 "data": [
  ["N[C@@H]1CCCN(c2c(/C=C3\\SC(=O)NC3=O)cccc2-c2ccccc2)C1 [AZD1208] (max concentration tested 10000 nM)", -4.63],
  ["COc1cc2ncnc(Nc3ccc(F)c(Cl)c3)c2cc1NC(=O)/C=C/CN1CCCCC1 [Dacomitinib] (max concentration tested 1000 nM)", 1.97],
  ["Cc1nc(C(=O)NCC(=O)O)c(O)c2ccc(Oc3ccccc3)cc12 [FG-4592] (max concentration tested 10000 nM)", -2.71],
  ["CC(C)(C)Cn1c(N)nc2ccc(-c3[nH]c(C(C)(C)C)nc3-c3ccc(F)cc3)nc21 [Ralimetinib] (max concentration tested 10000 nM)", -3.85],
  ["CNC(=O)c1nn(C)c2c1C(C)(C)Cc1cnc(Nc3ccc(N4CCN(C)CC4)cc3)nc1-2 [Milciclib] (max concentration tested 10000 nM)", -3.1],
  ["CN[C@@H]1C[C@H]2O[C@@](C)([C@@H]1OC)n1c3ccccc3c3c4c(c5c6ccccc6n2c5c31)C(=O)N[C@H]4O [UCN-01] (max concentration tested 10000 nM)", 2.38],
  ["CC(C)n1nc(-c2ccc3oc(N)nc3c2)c2c(N)ncnc21 [INK128] (max concentration tested 1000 nM)", -5.11],
  ["Nc1cccc2c1C(=O)N(C1CCC(=O)NC1=O)C2=O (stereo unspecified) [Pomalidomide] (max concentration tested 10000 nM)", -3.69],
  ["CO[C@H]1C[C@@H]2CC[C@@H](C)[C@@](O)(O2)C(=O)C(=O)N2CCCC[C@H]2C(=O)O[C@H]([C@H](C)C[C@@H]2CC[C@@H](O)[C@H](OC)C2)CC(=O)[C@H](C)/C=C(\\C)[C@@H](O)[C@@H](OC)C(=O)[C@H](C)C[C@H](C)/C=C/C=C/C=C/1C [Sirolimus] (max concentration tested 100 nM)", 29.4],
  ["C/C(=C\\c1csc(C)n1)[C@@H]1C[C@@H]2O[C@]2(C)CCC[C@H](C)[C@H](O)[C@@H](C)C(=O)C(C)(C)[C@@H](O)CC(=O)N1 [Ixabepilone] (max concentration tested 1000 nM)", -9.56],
  ["CN(C)Cc1ccc(S(=O)(=O)n2ccc(/C=C/C(=O)NO)c2)cc1 [Resminostat] (max concentration tested 10000 nM)", -6.67]
]}

---

Test system: NKL (IL-2 2.5 ng/mL)
Assay: percent inhibition of viability; higher = more inhibition
Details: 72 h; 0.25 nM

{"columns": ["COMPOUND", "percent inhibition of viability (%)"],
 "data": [
  ["CCn1nnc2c(N3CCOCC3)nc(-c3ccc(NC(=O)Nc4ccc(C(=O)N5CCN(C)CC5)cc4)cc3)nc21 [PKI-402] (max concentration tested 2500 nM)", -5.68],
  ["COc1cc(C(=O)NC2CCN(C)CC2)c(F)cc1Nc1ncc2c(n1)N(C1CCCC1)CC(F)(F)C(=O)N2C [TAK-960] (max concentration tested 2500 nM)", -17.8],
  ["Cc1cc(Nc2ncc(Cl)c(Nc3ccccc3S(=O)(=O)C(C)C)n2)c(OC(C)C)cc1C1CCNCC1 [Ceritinib] (max concentration tested 2500 nM)", -3.75],
  ["O=C(c1cccc(Cl)c1F)N1CCN(Cc2cccc(Nc3nccs3)n2)CC1 [MK-8745] (max concentration tested 2500 nM)", -14.5]
]}

Recorded values, source the supplement of paper PMC5908809.
